These data points were gathered from patent EP4624486A1.

# target: GCG receptor (GCGR) (UniProt P47871 26-477, limits assumed)
# Sequence (P47871 26-477 limits assumed): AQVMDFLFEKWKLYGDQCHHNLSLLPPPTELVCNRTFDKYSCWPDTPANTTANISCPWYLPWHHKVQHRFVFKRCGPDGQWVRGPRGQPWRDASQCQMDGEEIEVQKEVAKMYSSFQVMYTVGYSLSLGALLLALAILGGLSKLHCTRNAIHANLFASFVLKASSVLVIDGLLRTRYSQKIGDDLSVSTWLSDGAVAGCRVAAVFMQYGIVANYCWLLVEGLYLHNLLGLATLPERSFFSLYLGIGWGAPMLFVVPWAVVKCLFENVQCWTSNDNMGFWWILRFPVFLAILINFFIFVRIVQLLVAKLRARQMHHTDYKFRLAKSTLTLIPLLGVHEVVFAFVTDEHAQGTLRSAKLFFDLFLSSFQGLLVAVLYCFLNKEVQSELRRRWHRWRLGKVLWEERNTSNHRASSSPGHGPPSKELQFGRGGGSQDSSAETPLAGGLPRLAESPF
# test summary: cell-based or functional assay
Bridge positions count the residues as written; N and C are the ends. Square brackets hold non-standard residues; d marks the D form. Ends that are not written are not given here. stapled body chem0208 = not defined here; stapled body chem0215 = not defined here; αMeL = CC(C)C[C@](C)(N)C(=O)O; Orn = NCCC[C@H](N)C(=O)O; Aib = CC(C)(N)C(=O)O
One threshold, 0.05 nM, splits the recorded GCG EC50 (nM); cAMP, agonistic activity values: lower ones are t, equal or higher ones are f.

Please review the entries below; each comes with its answer.
binder	discrete label
Y[Aib]QGTFTSDYSI[αMeL]KDKKAQ[Aib]AFIEYLLKGGPSSGAPPPS-NH2 (linker 14-17 via (2-2-oxoethyl)‑glycine, AEEA, γGlu, C20 diacid) [Example 38]	t
Y[Aib]QGTFTSDYSI[αMeL]LDKKAQ[Aib]KFIEYLLEGGPSSGAPPPS-NH2 (linker 17-21 via (2-2-oxoethyl)‑glycine, AEEA, AEEA, γGlu, C20 diacid) [Example 1]	t
Y[Aib]QGTFTSDYSI[αMeL]LDKKAQ[Aib]KFIEYLLEGGPSSGAPPPS-NH2 (bridge 17-21; also: stapled body between K17 and K21 is given only as a drawing, not in text) [Example 6]	t
Y[Aib]QGTFTSDYSI[αMeL]LDKKAQ[Aib]AFIKYLLEGGPSSGAPPPS-NH2 (linker 17-24 via Ida, Lys, Lys, γGlu, C20 diacid) [Example 18]	f
Y[Aib]QGTFTSDYSI[αMeL]LDKKAQ[Aib]KFIEFLIEGGPSSGAPPPS-NH2 (linker 17-21 via Ida, Lys, Lys, γGlu, C20 diacid) [Example 23]	f

Task item: I'd appreciate it if you could check whether H[Aib]HGTFTSDYSIYLEKKYA[Aib]EFVKWLLKGGPSSGAPPPS-NH2 (bridge 24-28; not fully specified (bridges); also: stapled body (lipidated) structure only in drawing chem0197) [Example 4] has GCG EC50 (nM); cAMP, agonistic activity smaller than 0.05 nM.
Reply: f

Task item: I'd appreciate it if you could check whether Y[Aib]QGTFTSDYSI[αMeL]LDKKAQ[Aib]EFIEYLLEGGPSSGAPPPS-NH2 (linker 17-21 via stapled body chem0208; reading uncertain; also: further groups not given here) [Example 10] has GCG EC50 (nM); cAMP, agonistic activity smaller than 0.05 nM.
Reply: f

Task item: I'd appreciate it if you could check whether Y[Aib]QGTFTSDYSI[αMeL]LDKKAQ[Aib][Orn]FIEYLLEGGPSSGAPPPS-NH2 (linker 17-21 via stapled body chem0215; reading uncertain; also: further groups not given here) [Example 17] has GCG EC50 (nM); cAMP, agonistic activity smaller than 0.05 nM.
Reply: t
